test summary: BSK_CASM3C_Proliferation: Cell Proliferation Assessment in the BioMAP Diversity Plus: CASM3C Assay (AID 2283047);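 also: sulforhodamine B total protein stain as relative cell number at 560 nm; sub-confluent cells exposed 48 h before staining; fitted both ways against DMSO so gain or loss of cell number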
condition: primary human coronary artery smooth muscle cells
The source made the active and inactive calls. The calls were made as follows: active = hit-call score of the fitted dose curve at least 0.9, where 1 is the maximum; inactive = score below 0.9.
Labels: active, inactive

[
  {
    "given smiles": "c1ccc2c(c1)oc1ccccc12",
    "assigned label": "inactive"
  },
  {
    "given smiles": "Cc1ccc(N=C=O)cc1N=C=O",
    "assigned label": "active"
  },
  {
    "given smiles": "CS(=O)(=O)NC(=O)c1cc(Oc2ccc(C(F)(F)F)cc2Cl)ccc1[N+](=O)[O-]",
    "assigned label": "inactive"
  },
  {
    "given smiles": "CN(C)C(=O)Nc1ccc(Cl)cc1",
    "assigned label": "inactive"
  },
  {
    "given smiles": "CCN(CC)CCO",
    "assigned label": "inactive"
  },
  {
    "given smiles": "c1ccc2c(c1)-c1cccc3cccc-2c13",
    "assigned label": "inactive"
  },
  {
    "given smiles": "CC(C)(OOC(C)(C)c1ccccc1)c1ccccc1",
    "assigned label": "active"
  }
]

====

Read-out: urokinase plasminogen activator (uPA), PLAU (gene 5328)
test summary: BSK_KF3CT_uPA: BioMAP Diversity Plus: KF3CT Assay for urokinase plasminogen activator (uPA) Biomarker Activity (AID 2283075)
condition: primary human keratinocytes with fibroblasts; actives raise or lower the signal
Activity calls are given as the source filed them. Rule for the calls: active = hit-call score of the fitted dose curve at least 0.9, where 1 is the maximum; inactive = score below 0.9.
Outcome codes: true = active, false = inactive

[
  {
    "given smiles": "Nc1ccc([N+](=O)[O-])cc1",
    "assigned label": "false"
  },
  {
    "given smiles": "COc1cc(C=O)cc2c1[C@H](COC(N)=O)[C@]1(OC(C)=O)ON2C[C@H]2[C@@H]1N2C(C)=O",
    "assigned label": "true"
  },
  {
    "given smiles": "Cc1ccc(N)cc1",
    "assigned label": "false"
  },
  {
    "given smiles": "Nc1ccc(Oc2ccc(N)cc2)cc1",
    "assigned label": "false"
  },
  {
    "given smiles": "CCN(CC)N=O",
    "assigned label": "false"
  },
  {
    "given smiles": "Cc1ccc(N)c(N)c1",
    "assigned label": "false"
  },
  {
    "given smiles": "Clc1ccc(C(c2ccc(Cl)cc2)C(Cl)Cl)cc1",
    "assigned label": "true"
  },
  {
    "given smiles": "c1ccc2c(c1)-c1cccc3cccc-2c13",
    "assigned label": "false"
  }
]

====

Read-out: Cytochrome P450 7A1 (Homo sapiens)
test summary: LTEA_HepaRG_CYP7A1: Life Technologies and Expression Analysis (LTEA) Assay for Cytochrome P450 7A1 (CYP7A1) using HepaRG (AID 2283496)
condition: mRNA level, 48 h; actives raise or lower the signal
Method: LTEA_HepaRG is a cell based, multiplexed-readout assay that uses HepaRG, a human liver cell line, with measurements taken at 48 hours after chemical dosing on a 96-well plate.LTEA_HepaRG_CYP7A1 is one of 102 assay component(s) measured in the LTEA HepaRG cell culture assay. It is a marker of NR mediated metabolism.Data from the assay component LTEA_HepaRG_CYP7A1 was analyzed into 1 endpoint. […]
Calls of active or inactive are those of the source. The calls were made as follows: active = hit-call score of the fitted dose curve at least 0.9, where 1 is the maximum; inactive = score below 0.9.
reported endpoint: AC50

[
  {
    "molecule": "[As]#[In]",
    "reported endpoint": "AC50",
    "meas value": "inactive"
  },
  {
    "molecule": "O=P(OCCCl)(OCCCl)OCCCl",
    "reported endpoint": "AC50",
    "meas value": "inactive"
  },
  {
    "molecule": "CC(C)N(Cc1ccccc1)C(=O)C(C)(C)C",
    "reported endpoint": "AC50",
    "meas value": "inactive"
  },
  {
    "molecule": "O=C(O)C1C2CCC(O2)C1C(=O)O (stereo not drawn)",
    "reported endpoint": "AC50",
    "meas value": "71.5 µM (active)"
  },
  {
    "molecule": "COc1cc(C=O)cc2c1[C@H](COC(N)=O)[C@]1(OC(C)=O)ON2C[C@H]2[C@@H]1N2C(C)=O",
    "reported endpoint": "AC50",
    "meas value": "0.417 µM (active)"
  },
  {
    "molecule": "CC(C)(C)OOC(C)(C)CCC(C)(C)OOC(C)(C)C",
    "reported endpoint": "AC50",
    "meas value": "inactive"
  },
  {
    "molecule": "Nc1ccc(Oc2ccc(N)cc2)cc1",
    "reported endpoint": "AC50",
    "meas value": "inactive"
  },
  {
    "molecule": "Clc1ccc(Cl)c(Cl)c1",
    "reported endpoint": "AC50",
    "meas value": "50 µM (active)"
  },
  {
    "molecule": "ClC1=C(Cl)C2(Cl)C3C(Cl)C=CC3C1(Cl)C2(Cl)Cl (stereo not drawn)",
    "reported endpoint": "AC50",
    "meas value": "13.8 µM (active)"
  },
  {
    "molecule": "CCNS(=O)(=O)C(F)(F)C(F)(F)C(F)(F)C(F)(F)C(F)(F)C(F)(F)C(F)(F)C(F)(F)F",
    "reported endpoint": "AC50",
    "meas value": "48.2 µM (active)"
  },
  {
    "molecule": "Cc1ccc([N+](=O)[O-])cc1",
    "reported endpoint": "AC50",
    "meas value": "17.3 µM (active)"
  },
  {
    "molecule": "c1ccc(N=Nc2ccccc2)cc1",
    "reported endpoint": "AC50",
    "meas value": "inactive"
  },
  {
    "molecule": "CCCCCOC(=O)c1ccccc1C(=O)OCCCCC",
    "reported endpoint": "AC50",
    "meas value": "inactive"
  }
]
